# subject_of_test: Xanthine dehydrogenase/oxidase (Homo sapiens, UniProt P47989)
# Sequence (P47989 whole entry): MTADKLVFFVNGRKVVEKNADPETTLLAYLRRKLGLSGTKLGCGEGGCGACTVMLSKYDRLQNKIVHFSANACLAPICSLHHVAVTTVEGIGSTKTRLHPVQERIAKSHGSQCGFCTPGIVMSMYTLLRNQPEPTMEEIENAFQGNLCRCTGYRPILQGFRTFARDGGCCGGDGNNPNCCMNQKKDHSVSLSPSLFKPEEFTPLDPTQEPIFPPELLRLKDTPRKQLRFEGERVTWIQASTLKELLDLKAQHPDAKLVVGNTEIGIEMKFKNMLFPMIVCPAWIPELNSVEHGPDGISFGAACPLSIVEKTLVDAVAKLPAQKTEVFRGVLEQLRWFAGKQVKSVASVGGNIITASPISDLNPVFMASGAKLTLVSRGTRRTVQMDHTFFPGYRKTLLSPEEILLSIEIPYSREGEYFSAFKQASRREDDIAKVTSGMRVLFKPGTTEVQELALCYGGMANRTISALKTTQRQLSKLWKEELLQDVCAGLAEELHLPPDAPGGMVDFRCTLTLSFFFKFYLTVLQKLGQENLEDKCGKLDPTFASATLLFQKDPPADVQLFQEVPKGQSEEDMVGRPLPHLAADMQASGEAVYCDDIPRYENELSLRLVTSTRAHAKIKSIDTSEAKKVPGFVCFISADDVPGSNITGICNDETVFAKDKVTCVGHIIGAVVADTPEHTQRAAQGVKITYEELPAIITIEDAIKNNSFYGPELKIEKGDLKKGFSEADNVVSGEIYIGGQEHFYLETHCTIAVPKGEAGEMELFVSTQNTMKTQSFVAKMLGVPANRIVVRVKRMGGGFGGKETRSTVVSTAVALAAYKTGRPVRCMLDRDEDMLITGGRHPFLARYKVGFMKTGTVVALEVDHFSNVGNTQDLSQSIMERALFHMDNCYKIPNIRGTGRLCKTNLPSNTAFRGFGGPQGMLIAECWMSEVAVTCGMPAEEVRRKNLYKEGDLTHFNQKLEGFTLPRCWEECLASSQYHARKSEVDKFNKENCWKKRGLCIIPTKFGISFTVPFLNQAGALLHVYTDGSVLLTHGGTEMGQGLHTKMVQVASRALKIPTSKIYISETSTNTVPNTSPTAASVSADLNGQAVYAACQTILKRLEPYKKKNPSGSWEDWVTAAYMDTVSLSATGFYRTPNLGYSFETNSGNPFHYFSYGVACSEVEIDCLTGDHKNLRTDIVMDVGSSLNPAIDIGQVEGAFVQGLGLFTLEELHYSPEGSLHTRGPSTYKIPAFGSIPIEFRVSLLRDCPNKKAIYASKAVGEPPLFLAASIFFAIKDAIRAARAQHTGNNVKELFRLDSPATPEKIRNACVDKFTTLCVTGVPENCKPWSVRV
# measurement_description: Inhibition of oxidized form of human xanthine oxidase
quantity_kind: Ki (nM)
Express the result in nM but write the number alone.

Query :: Query for Xanthine dehydrogenase/oxidase (Homo sapiens, UniProt P47989): what Ki does the record show for O=c1[nH]c(=O)c2c[nH]nc2[nH]1 [OXYPURINOL] ?
Result :: 1000

----------
Sequence of the target: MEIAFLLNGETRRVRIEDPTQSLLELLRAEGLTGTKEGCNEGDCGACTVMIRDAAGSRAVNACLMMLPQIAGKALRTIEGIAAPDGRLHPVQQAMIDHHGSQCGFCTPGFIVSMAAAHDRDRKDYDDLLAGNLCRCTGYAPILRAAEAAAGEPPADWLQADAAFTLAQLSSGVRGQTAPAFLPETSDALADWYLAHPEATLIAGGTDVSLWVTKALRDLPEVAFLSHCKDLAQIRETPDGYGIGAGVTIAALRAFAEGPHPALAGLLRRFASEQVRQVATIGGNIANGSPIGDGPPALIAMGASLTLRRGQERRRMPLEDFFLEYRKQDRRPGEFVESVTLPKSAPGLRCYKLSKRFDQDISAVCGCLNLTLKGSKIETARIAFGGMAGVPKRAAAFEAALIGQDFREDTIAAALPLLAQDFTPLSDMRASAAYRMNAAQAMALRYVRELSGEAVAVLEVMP
quantity_kind: Ki
In your response, put the unit directly after the numeric value.

Query :: Any idea what its Ki is? The molecule is `Nc1nc2ncc(C=O)nc2c(=O)[nH]1`
Result :: 0.104 µM
